These measurements were taken from patent US8163909B2.

METHOD_NOTES: Microsomal stability assay, rat liver microsomes;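 further: rat liver microsomes (0.25 mg/mL) with about 1 µM compound plus 1 mM NADPH, pH 7.4, 37 °C for 30 min, parent left measured by LC-MS/MS against 0 min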
PROTOCOL_CONDITIONS: rat liver microsomal data
READOUT_NAME: RLM (µL/min/mg)
Write the number in µL/min/mg without appending the unit.

Below: 2 compounds and their reported RLM.
Quick check: RLM of CNc1nc(CC(C)(C)C)cc2c1OC1(CCC1)C[C@@H]2NC[C@@H](O)[C@H](Cc1cc(F)cc(-c2nccs2)c1)NC(=O)COC [Example 847] ? 201

What measured RLM goes with COCC(=O)N[C@@H](Cc1cc(F)cc(F)c1)[C@H](O)CN[C@H]1CC2(CCC2)Oc2c1cc(CC(C)(C)C)nc2-c1cnc[nH]1 [compound 508] ? 43

Here is another compound to look at.
Using the record for C#Cc1ccc(F)c(C[C@H](NC(=O)[C@@H](C)OC)[C@H](O)CN[C@H]2CC3(CCC3)Oc3ncc(CC(C)(C)C)cc32)c1 [Example 902] , report its RLM. 70
